target: Vg9/Vd1 TCR on SKW3 cells (UniProt Q99603); assay: flow cytometry, dose-response binding at 37° C. on SKW3 cells expressing Vg9/Vd1
Sequence (Q99603 21-122): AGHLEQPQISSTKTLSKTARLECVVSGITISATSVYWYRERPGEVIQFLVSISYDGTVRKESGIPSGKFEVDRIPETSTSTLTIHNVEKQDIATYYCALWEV
Reported values of Max. Activity (fold over background) for individual entries
API note: the answer field is a bare number with no unit suffix.

For orientation, consider the following solved cases.
>  <binder>
VG9B33 (antibody, human IgG1, kappa, V domains shown) VH: EVQLVESGGGLVKPGGSLRLSCAASGFTFSSYNMNWVRQAPGKGLEWVSSISTSSSYIYYADSVKGRFTISRDNAKNSLYLQMNGLRAEDTAVYYCARDTSVTKYPDTFDIWGQGTMVTVSS VL: DIVMTQSPSSLSASVGDRVTITCRASQDINNYLAWFQQKPGKVPNLLIYGASTLQSGVPSRFTGSGSGTDFTLTISSLQPEDVATYYCQKYNSAPFTFGPGTKVDIKR

>  <Max. Activity (fold over background)>
377

$$$$
>  <binder>
VG9B44 (antibody, human IgG1, kappa, V domains shown) VH: QVQLQQSGPGLVKPSQTLSLTCAISGDSVSSNSAAWNWIRQSPSRGLEWLGRTYYRSKWYNDYPISVKSRISINPDTSKNQFSLQLNSVTPEDTAVYYCARESGSYYTDGFDIWGQGTMVTVSS VL: DIQMTQSPSFLSASVGDRVTITCRASQGISSYLAWYQQKPGKAPKLLIYAASTLQSGVPSRFSGSGSGTEFTLTISSLQPEDFATYYCQEFNSYPYTFGQGTKLEIKR

>  <Max. Activity (fold over background)>
375

$$$$
>  <binder>
VG9B60 (antibody, human IgG1, kappa, V domains shown) VH: QVQLVQSGAEVKKPGASVKVSCKASGYTFTGYYMHWVRQAPGQGLEWMGRINPNSGVTHYAQKFQGRVTMTRDTSISTAYMELSRLRSDDTAVYYCARGGSLVRGVISGLDYWGQGTTVTVSS VL: DIVMTQSPGTLSLSPGERATLSCRASQSFSGSYLAWYQQKPGQAPSLLIYGASSRATGIPDRFSGSGSGTDFTLTISRLEPEDFALYYCQQYGSSPPYTFGQGTKVEIKR

>  <Max. Activity (fold over background)>
40.6

$$$$

For reference, reported Max. Activity (fold over background) for VG9B191 (antibody, human IgG1, lambda, V domains shown) VH: EVQLVQSGGGLVKPGGSLRLSCAASGFTFSRYSMNWVRQAPGKGLEGVSSISSSSSYIYYADSVKGRFTISRDNAKNSLYLQMNSLRAEDTAVYYCARDGPTVNWDYYFDLWGRGTLVTVSS VL: QSVLTQPPSVSAAPGQKVTISCSGSSSNIGNNYVSWYQQLPGTAPKLLIYDNNKRPSGIPDRFSGSKSGTSATLGITGLQTGDEADYYCGTWDSSLSTSVVFGGGTKLTVLG stands at 381

For reference, reported Max. Activity (fold over background) for VG9B57 (antibody, human IgG1, kappa, V domains shown) VH: EVQLVESGGGLVKPGGSLRLSCAASGFTFSSHDMNWVRQAPGKGLGWVSSISSSSSYIFYADSVKGRFTISRDNAKNSLYLQMSSLRAEDTAVYYCARDLGVGVRDYYYYGMDVWGQGTMVTVSS VL: DIQMTQSPSAMSASVGDRVTITCRASQDITNYLAWFQQKPGKVPKRLIYAASSLQGGVPSRFSGSGSGTEFTLTISSLQPEDFSTYYCLQHDTYPYTFGQGTKLEIKR stands at 75.9

For reference, reported Max. Activity (fold over background) for VG9B152 (antibody, human IgG1, lambda, V domains shown) VH: EVQLVESGGGLVRPGGSLRLSCEASGFTFSSYSMIWVRQAPGKGLEWVSSISSSSDYIYNADSVKGRFTISRDNAKNSLYLQMNSLRAEDTAVYYCARDWELLGFDCWGQGTTVTVSS VL: SYELMQPPSVSVSPGQTASITCSGDKLGDKYACWYQQKPGQSPVLVIYQHNKRPSGIPERFSGSNSGKTATLTISGTQAMDEADYYCQAWDSTTVVFGGGTKLTVLG stands at 352

For reference, reported Max. Activity (fold over background) for VG9B67 (antibody, human IgG1, kappa, V domains shown) VH: EVQLVESGGGLVKPGGSLRLSCAASGFTFSSYTMNWVRQAPGKGLEWVSSISSSSSYIDYAESVKGRFTISRDNAKNSLYLQMNSLRAEDTAVYYCARDGDILATIRGSFDYWGQGTTVTVSS VL: DIVMTQTPLSLPVTPGEPASISCRSSQSLLDSDAGNTYLDWYLQKPGQSPQLLIYTLSYRASGVPDRFSGSGSGTDFTLKISRVEAEDVAIYYCMQRIEFPITFGQGTKVEIKR stands at 318

For reference, reported Max. Activity (fold over background) for VG9B409 (antibody, human IgG1, kappa, V domains shown) VH: EVQLVESGAEVKKPGASVKVSCKASGYTLTSYYMHWVRQAPGQGLEWMGIINPSGGSTSYAQKFQGRVTMTRDTSTSTVYMELSSLRSEDTAVYYCARGSYGWYFDLWGRGTLVTVSS VL: EIVLTQSPGTLSLSPGERATLSCRASQSVTSSYLAWYQQKPGQTPRLLIYGASSRATGIPDRISGSGSGTDFTLTVSRLEPEDFAVYYCQQYGSSPPYTFGQGTKLEIKR stands at 408

For reference, reported Max. Activity (fold over background) for VG9B127 (antibody, human IgG1, kappa, V domains shown) VH: QVQLVESGGGLVKPGGSLRLSCTASGFTFGAYTMNWVRQAPGKGLEWVSSISSSSSYIDFAESVKGRFTISRDNAKNSLYLQMISLRAEDTAVYYCARDGDIVSTIRGSFDYWGQGALVTVSS VL: EIVMTQSPLSLPVTPGEPASISCRSSQSLLDSDDGNTYLDWYLQKPGQSPQLLIYTLSYRASGVPDRFSGSGSGTDFTLKISRVEAEDVGIYYCMQRIEFPITFGQGTKVEIKR stands at 318
